These records show Ki for Acetylcholinesterase (Electrophorus electricus, UniProt O42275).
State the answer as a number, implicitly in nM.

1. CN(C)c1nc2sc3c(c2c(=O)o1)CCN(Cc1ccccc1)C3	1700

Alright, here's another compound for you.
Would you kindly share the measured Ki for `CC(C)CN1CCc2c(sc3nc(N(C)C)oc(=O)c23)C1` ? 660

====

System: Acetylcholinesterase (Electrophorus electricus)
Sequence (O42275 whole entry): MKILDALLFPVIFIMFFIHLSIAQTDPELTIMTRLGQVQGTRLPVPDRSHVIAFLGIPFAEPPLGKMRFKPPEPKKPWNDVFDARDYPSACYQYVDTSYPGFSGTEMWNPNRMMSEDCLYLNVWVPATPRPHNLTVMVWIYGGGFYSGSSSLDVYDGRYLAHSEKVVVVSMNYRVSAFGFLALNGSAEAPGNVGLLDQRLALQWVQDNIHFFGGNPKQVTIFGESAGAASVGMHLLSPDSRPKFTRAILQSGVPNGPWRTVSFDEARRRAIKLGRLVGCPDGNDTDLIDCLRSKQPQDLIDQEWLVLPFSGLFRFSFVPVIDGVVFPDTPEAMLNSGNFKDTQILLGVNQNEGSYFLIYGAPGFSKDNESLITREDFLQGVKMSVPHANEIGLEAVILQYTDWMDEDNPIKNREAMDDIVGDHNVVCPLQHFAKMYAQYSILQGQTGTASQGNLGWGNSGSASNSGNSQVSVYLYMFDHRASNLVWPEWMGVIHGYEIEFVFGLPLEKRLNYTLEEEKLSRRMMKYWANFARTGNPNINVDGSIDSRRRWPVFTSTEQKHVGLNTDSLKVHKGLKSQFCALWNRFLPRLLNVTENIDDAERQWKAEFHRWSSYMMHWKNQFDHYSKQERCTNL
# IC50 values compiled below

Check out these entries, answers already filled in.
1. CN(c1nc2sc3c(c2c(=O)o1)CCCC3)C1CCCCC1	> 50 µM
2. CN(C)c1nc2sc3c(c2c(=O)o1)CCOC3	> 50 µM
3. CCN(CC)c1nc2sc3c(c2c(=O)o1)C(C)CCC3 (stereo not given)	> 50 µM

Would you kindly share the measured IC50 for `CCN(CC)c1nc2scc(C)c2c(=O)o1` ? > 50 µM

Next compound up: `CCN(CC)c1nc2sc3ccccc3c2c(=O)o1` > 50 µM
